system-name: Heat shock factor protein 1 (Mus musculus)
Sequence (P38532 whole entry): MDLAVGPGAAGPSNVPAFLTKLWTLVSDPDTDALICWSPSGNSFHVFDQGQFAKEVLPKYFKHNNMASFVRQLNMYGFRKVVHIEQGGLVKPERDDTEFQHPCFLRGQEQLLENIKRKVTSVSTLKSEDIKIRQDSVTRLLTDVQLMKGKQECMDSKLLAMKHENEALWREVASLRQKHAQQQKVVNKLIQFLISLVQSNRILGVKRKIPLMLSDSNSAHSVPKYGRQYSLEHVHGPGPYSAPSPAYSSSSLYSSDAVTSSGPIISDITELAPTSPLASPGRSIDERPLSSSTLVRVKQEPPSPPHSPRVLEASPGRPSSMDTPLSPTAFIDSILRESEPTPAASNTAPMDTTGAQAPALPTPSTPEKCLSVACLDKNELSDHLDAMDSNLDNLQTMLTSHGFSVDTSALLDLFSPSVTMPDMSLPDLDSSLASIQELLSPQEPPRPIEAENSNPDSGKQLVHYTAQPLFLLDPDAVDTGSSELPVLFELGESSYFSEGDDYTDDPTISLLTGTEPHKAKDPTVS
test: enhancement of HSF1-driven luciferase signal – cell-based, NIH3T3, luminescence, dose retest, confirmation (AID 435004);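 also: stress induced by proteasome inhibitor MG132 added 30 min after compound; luciferase reporter driven by HSF1 response element in NIH3T3 cells; actives raise luminescence as potentiators of the MG132 stress response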
Assay type: functional
Activity calls are given as the source filed them. Rule as the data show it: actives have a measured EC50 and inactives only a lower limit.
Possible outcomes: label 1 = active, label 0 = inactive

- CCOC(=O)COc1ccc(Br)cc1/C=C/c1nc(O)nc(O)c1[N+](=O)[O-]: label 1
- C/C(=N\NC(=O)CC1N=C(Cc2ccccc2)NNC1=O)c1ccc(C)cc1 (stereo unspecified): label 0
- COc1cccc(C2C([N+](=O)[O-])=C(N)Oc3c2c(=O)oc2ccccc32)c1 (stereo unspecified): label 0
- NC(=O)CC(NC(=O)c1ccc(Br)cc1)c1ccc(N2CCCCCC2)c([N+](=O)[O-])c1 (stereo unspecified): label 1
- O=C(c1ccccc1Br)N1CCN(c2ccccc2)CC1: label 0
- CCOC(=O)c1c(COc2ccccc2)oc2ccc(O)cc12: label 0
- Cc1ccc(CNC(=O)CSc2ccsc2[N+](=O)[O-])cc1: label 1
- CCCC/N=C1\C(=O)N(C)c2cccc3c(O)c4ccccc4c1c23: label 1
- c1cnc(N2CCN(c3ccc4ccccc4n3)CC2)nc1: label 0
- Cc1ccccc1Nc1nc(N)nc(CSc2ccccc2)n1: label 1
- C=CCn1c(COc2ccc(CC)cc2)nnc1SC/C(O)=C(\C#N)c1nc2ccccc2[nH]1: label 0
